- Test system: Human coronavirus 229E
- ASSAY_OVERVIEW: Antiviral activity against HCoV-229E infected in human HEL 299 cells assessed as inhibition of virus-induced cytopathogenic effect incubated for 3 to 7 days by MTS assay
- Type: functional, organism-based
ASSAY_ENDPOINT: EC50

# COMPOUND_STRING, REPORTED_RESULT
measured = [
    ("O=c1oc2ccc(Br)cc2c(Cl)c1-c1nc2cc(C3=NCCN3)ccc2[nH]1", "> 100 µM"),
    ("CCN(CC)c1ccc2cc(-c3nc4cc(C5=NCCCN5)ccc4[nH]3)c(=O)oc2c1", "> 100 µM"),
    ("CCC(CC)COC(=O)[C@H](C)N[P@](=O)(OC[C@H]1O[C@@](C#N)(c2ccc3c(N)ncnn23)[C@H](O)[C@@H]1O)Oc1ccccc1", "0.06 µM"),
    ("O=c1oc2ccc(Br)cc2c(Cl)c1-c1nc2cc(C3=NCCCN3)ccc2[nH]1", "> 100 µM"),
    ("O=c1oc2ccccc2c(Cl)c1-c1nc2cc(C3=NCCCN3)ccc2[nH]1", "> 100 µM"),
    ("NC(=O)c1ncn([C@@H]2O[C@H](CO)[C@@H](O)[C@H]2O)n1", "82.6 µM"),
    ("CCN(CC)c1ccc2cc(-c3nc4ccc(C5=NCCCN5)cc4s3)c(=O)oc2c1.Cl", "33 µM"),
    ("O=c1oc2ccccc2c(Cl)c1-c1nc2cc(C3=NCCN3)ccc2[nH]1", "> 100 µM"),
    ("CCN(CC)c1ccc2cc(-c3nc4cc(C5=NCCN5)ccc4[nH]3)c(=O)oc2c1.Cl", "> 100 µM"),
    ("Cc1ccc2oc(=O)c(-c3nc4cc(C5=NCCN5)ccc4[nH]3)c(Cl)c2c1", "> 100 µM"),
    ("Cc1ccc2oc(=O)c(-c3nc4cc(C5=NCCCN5)ccc4[nH]3)c(Cl)c2c1", "> 100 µM"),
    ("CCN(CC)c1ccc2cc(-c3nc4ccc(C5=NCCN5)cc4s3)c(=O)oc2c1", "> 100 µM"),
]

====

- Test system: Influenza A virus
- ASSAY_OVERVIEW: Antiviral activity against influenza virus H3N2 infected in dog MDCK cells assessed as inhibition of virus-induced cytopathogenic effect incubated for 3 to 7 days by MTS assay
- Format: functional, organism-based
Recorded EC50 values for a group of compounds are listed next.
ASSAY_ENDPOINT: EC50

# COMPOUND, ASSAY_ENDPOINT, REPORTED_RESULT
data = [
    ("O=c1oc2ccccc2c(Cl)c1-c1nc2cc(C3=NCCCN3)ccc2[nH]1", "EC50", "> 100 µM"),
    ("CC(N)C12CC3CC(CC(C3)C1)C2 (centres undefined)", "EC50", "0.05 µM"),
    ("CC(=O)N[C@H]1[C@H]([C@H](O)[C@H](O)CO)OC(C(=O)O)=C[C@@H]1NC(=N)N", "EC50", "16.8 µM"),
    ("Cc1ccc2oc(=O)c(-c3nc4cc(C5=NCCN5)ccc4[nH]3)c(Cl)c2c1", "EC50", "> 100 µM"),
]

====

- ASSAY_OVERVIEW: Cytotoxicity against human HEL 299 cells assessed as inhibition of cell growth incubated for 72 hrs by CellTiter96 Aqueous One Solution cell proliferation assay
- Format: toxicity, cell-based
ASSAY_ENDPOINT: CC50 at 72 h

# COMPOUND_STRING, REPORTED_RESULT
data = [
    ("NC(=O)c1ncn([C@@H]2O[C@H](CO)[C@@H](O)[C@H]2O)n1", "> 250 µM"),
    ("O=c1oc2ccc(Br)cc2c(Cl)c1-c1nc2cc(C3=NCCCN3)ccc2[nH]1", "> 100 µM"),
    ("CCN(CC)c1ccc2cc(-c3nc4ccc(C5=NCCN5)cc4s3)c(=O)oc2c1", "> 100 µM"),
    ("CCN(CC)c1ccc2cc(-c3nc4cc(C5=NCCCN5)ccc4[nH]3)c(=O)oc2c1", "> 100 µM"),
]

====

- System: HL-60
- ASSAY_OVERVIEW: Antiproliferative activity against human HL-60 cells assessed as inhibition of cell growth incubated for 72 hrs by CellTiter96 Aqueous One Solution cell proliferation assay
- Type: functional, cell-based
- TEST_PARAMETERS: HL-60, 72 h
pIC50: −log10 of the molar value.

# COMPOUND_STRING, ASSAY_SYSTEM, pIC50
measured = [
    ("O=c1oc2ccccc2c(Cl)c1-c1nc2cc(C3=NCCN3)ccc2[nH]1", "HL-60", 4.25),
    ("Cc1ccc2oc(=O)c(-c3nc4cc(C5=NCCN5)ccc4[nH]3)c(Cl)c2c1", "HL-60", 4.67),
    ("O=c1oc2ccccc2c(Cl)c1-c1nc2cc(C3=NCCCN3)ccc2[nH]1", "HL-60", 4.27),
    ("CCN(CC)c1ccc2cc(-c3nc4cc(C5=NCCCN5)ccc4[nH]3)c(=O)oc2c1", "HL-60", 4.20),
]

====

- ASSAY_OVERVIEW: Cytotoxicity against human HEL 299 cells assessed as inhibition of cell growth incubated for 72 hrs by CellTiter96 Aqueous One Solution cell proliferation assay
- Format: toxicity, cell-based

# COMPOUND, CC50 at 72 h
data = [
    ("O=c1[nH]c(=O)n([C@H]2C[C@H](O)[C@@H](CO)O2)cc1/C=C/Br [BRIVUDINE]", "> 100 µM"),
    ("Cc1ccc2oc(=O)c(-c3nc4cc(C5=NCCCN5)ccc4[nH]3)c(Cl)c2c1", "> 100 µM"),
    ("CCN(CC)c1ccc2cc(-c3nc4ccc(C5=NCCCN5)cc4s3)c(=O)oc2c1.Cl", "> 100 µM"),
    ("CCC(CC)COC(=O)[C@H](C)N[P@](=O)(OC[C@H]1O[C@@](C#N)(c2ccc3c(N)ncnn23)[C@H](O)[C@@H]1O)Oc1ccccc1 [REMDESIVIR]", "> 10 µM"),
]

====

Recorded EC50 values for a group of compounds are listed next.
- System: Zika virus
- ASSAY_OVERVIEW: Antiviral activity against Zika virus Mr776 infected in human Huh-7 cells assessed as inhibition of virus-induced cytopathogenic effect incubated for 3 to 7 days by MTS assay
- Type: functional, organism-based
- TEST_PARAMETERS: Mr776, Huh-7

# COMPOUND_STRING, EC50
measured = [
    ("O=c1oc2ccccc2c(Cl)c1-c1nc2cc(C3=NCCCN3)ccc2[nH]1", "> 100 µM"),
    ("CCN(CC)c1ccc2cc(-c3nc4cc(C5=NCCN5)ccc4[nH]3)c(=O)oc2c1.Cl", "> 100 µM"),
    ("NC(=O)c1ncn([C@@H]2O[C@H](CO)[C@@H](O)[C@H]2O)n1", "> 250 µM"),
    ("O=c1oc2ccc(Br)cc2c(Cl)c1-c1nc2cc(C3=NCCN3)ccc2[nH]1", "> 100 µM"),
    ("CCC(CC)COC(=O)[C@H](C)N[P@](=O)(OC[C@H]1O[C@@](C#N)(c2ccc3c(N)ncnn23)[C@H](O)[C@@H]1O)Oc1ccccc1", "0.7 µM"),
]

====

- ASSAY_OVERVIEW: Cytotoxicity against dog MDCK cells assessed as inhibition of cell growth incubated for 72 hrs by CellTiter96 Aqueous One Solution cell proliferation assay
- Type: toxicity, cell-based, Canis lupus familiaris
Recorded CC50 at 72 h values for a group of molecules are listed next.

# MOLECULE, CC50 at 72 h
records = [
    ("O=c1oc2ccc(Br)cc2c(Cl)c1-c1nc2cc(C3=NCCCN3)ccc2[nH]1", "> 100 µM"),
    ("CCN(CC)c1ccc2cc(-c3nc4cc(C5=NCCN5)ccc4[nH]3)c(=O)oc2c1.Cl", "< 0.8 µM"),
    ("CC(N)C12CC3CC(CC(C3)C1)C2 (centres undefined)", "> 100 µM"),
    ("CC(=O)N[C@H]1[C@H]([C@H](O)[C@H](O)CO)OC(C(=O)O)=C[C@@H]1NC(=N)N", "> 100 µM"),
]
